Assay: Intrinsic clearance in human liver microsomes at 1 uM preincubated for 10 mins followed by NADPH addition measured up to 30 mins by LC-MS/MS analysis
Type: ADME, Microsome
Details: read-out: CLH
Reported values of CLint scaled at 1 µM for individual entries
Assay endpoint: CLint scaled at 1 µM (mL/min/kg)

1) COC(=O)C1=C(CN2CCOC[C@H]2C(=O)O)NC(c2nccs2)=N[C@@]1(C)c1ccc(F)cc1; 4.1
2) COC(=O)C1=C(CN2CCC[C@H]2C(=O)O)NC(c2nccs2)=N[C@@]1(C)c1ccc(F)cc1; 2.3
3) COC(=O)C1=C(CN2CC(F)(F)C[C@H]2C(=O)OC)NC(c2nccs2)=N[C@@]1(C)c1ccc(F)cc1; 23
4) COC(=O)C1=C(CN2CC(F)(F)C[C@H]2C(=O)O)NC(c2nccs2)=N[C@@]1(C)c1ccc(F)cc1; 12

----------
Experiment: Oral bioavailability in CD-1 mouse plasma at 50 mg/kg administered as single dose by LC-MS/MS analysis
Format: ADME, organism-based
Assay endpoint: bioavailability (%)

1) COC(=O)C1=C(CN2CC(F)(F)C[C@H]2C(=O)O)NC(c2nccs2)=N[C@@]1(C)c1ccc(F)cc1; 36

----------
Test: Cmax in CD-1 mouse plasma at 5 mg/kg, iv administered as single dose by LC-MS/MS analysis
Type: ADME, organism-based
Parameters: dose 5 mg/kg, route intravenous
Assay endpoint: Cmax (ng/mL)

1. COC(=O)C1=C(CN2CC(F)(F)C[C@H]2C(=O)O)NC(c2nccs2)=N[C@@]1(C)c1ccc(F)cc1; 12400

----------
Assay: in vivo
Settings: CD-1, mouse, other tissue, po, 50 mg/kg
Assay endpoint: Kp

1. COC(=O)C1=C(CN2CC(F)(F)C[C@H]2C(=O)O)NC(c2nccs2)=N[C@@]1(C)c1ccc(F)cc1; 20

----------
Assay: Intrinsic clearance in mouse liver microsomes at 1 uM preincubated for 10 mins followed by NADPH addition measured up to 30 mins by LC-MS/MS analysis
Format: ADME, Microsome
Details: read-out: CLH
Label true (1) for high-side CLint scaled at 1 µM (at or above 80 mL/min/kg) and false (0) for low-side CLint scaled at 1 µM (below it).

1) CC1(c2ccc(F)cc2)N=C(c2nccs2)NC(CN2CCOCC2)=C1C(N)=O (centres undefined); false (0)
2) CNC(=O)C1=C(CN2CCOCC2)NC(c2nccs2)=NC1(C)c1ccc(F)cc1 (centres undefined); false (0)
3) COC(=O)C1=C(CN2CCC(F)(F)C2)NC(c2nccs2)=NC1(C)c1ccc(F)cc1 (centres undefined); true (1)
4) CC(C)OC(=O)C1=C(CN2CCOCC2)NC(c2nccs2)=NC1(C)c1ccc(F)cc1 (centres undefined); true (1)
5) COC(=O)C1=C(CN(C)C2(C(=O)O)CC2)NC(c2nccs2)=NC1(C)c1ccc(F)cc1 (centres undefined); false (0)
6) COC(=O)C1=C(CN2CCS(=O)(=O)CC2)NC(c2nccs2)=NC1(C)c1ccc(F)cc1 (centres undefined); false (0)
7) COC(=O)C1=C(CN2CCCC(F)(F)C2)NC(c2nccs2)=NC1(C)c1ccc(F)cc1 (centres undefined); true (1)
8) COC(=O)C1=C(CN2CCC(C(F)(F)F)C2)NC(c2nccs2)=NC1(C)c1ccc(F)cc1 (centres undefined); true (1)
